Biological target: Human TRPC6 (Homo sapiens, UniProt Q9Y210)
Construct: expressed in transfected cells
Sequence (Q9Y210 1-931): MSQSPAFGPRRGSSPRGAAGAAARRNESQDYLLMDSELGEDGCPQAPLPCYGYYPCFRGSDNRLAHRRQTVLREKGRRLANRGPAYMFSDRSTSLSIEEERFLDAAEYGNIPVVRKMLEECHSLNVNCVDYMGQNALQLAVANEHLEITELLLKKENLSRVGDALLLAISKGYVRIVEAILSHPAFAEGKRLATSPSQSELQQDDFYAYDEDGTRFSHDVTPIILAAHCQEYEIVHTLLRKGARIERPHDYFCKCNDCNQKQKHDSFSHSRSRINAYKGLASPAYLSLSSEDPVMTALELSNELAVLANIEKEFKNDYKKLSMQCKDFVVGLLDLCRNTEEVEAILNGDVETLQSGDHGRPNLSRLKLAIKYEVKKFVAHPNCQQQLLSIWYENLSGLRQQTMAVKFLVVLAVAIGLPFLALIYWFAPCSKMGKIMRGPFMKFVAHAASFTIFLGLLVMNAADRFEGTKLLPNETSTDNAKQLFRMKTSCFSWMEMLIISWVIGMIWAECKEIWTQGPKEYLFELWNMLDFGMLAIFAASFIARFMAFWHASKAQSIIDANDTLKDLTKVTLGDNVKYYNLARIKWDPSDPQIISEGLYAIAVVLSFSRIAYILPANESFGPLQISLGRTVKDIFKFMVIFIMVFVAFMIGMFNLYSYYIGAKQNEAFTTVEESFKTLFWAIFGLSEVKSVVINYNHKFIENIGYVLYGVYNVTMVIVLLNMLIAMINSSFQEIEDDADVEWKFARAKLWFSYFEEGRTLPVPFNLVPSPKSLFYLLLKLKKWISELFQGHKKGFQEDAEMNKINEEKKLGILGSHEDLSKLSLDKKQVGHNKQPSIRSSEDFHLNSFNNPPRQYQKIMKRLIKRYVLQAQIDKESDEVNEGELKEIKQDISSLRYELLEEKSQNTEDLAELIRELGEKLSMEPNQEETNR
Experiment: Evaluation of TRPC6 channel inhibitory activity (1), FLIPR Calcium 5 Assay Kit, OAG stimulation (Compound Nos. 1-1293)
Type: cell-based
Details: Human TRPC6 stably-expressing cells, OAG 30 μM, FLIPR Calcium 5 Assay Kit; read-out: Inhibitory activity (pIC50 class) (converted)
Parameter IC50: see the listing below.

Known results for molecules:
Test Smiles: Cc1nc(Sc2cc(C#N)ccc2-c2ccc(CCN)cn2)cc(N2CCCC2)n1
Metric: IC50
Endpoint Value: 0.01 to 1 µM
--
Test Smiles: N#Cc1ccc(-c2ccc(CCN)cn2)c(Oc2cc(N3CCOCC3)nc(C(F)(F)F)n2)c1
Metric: IC50
Endpoint Value: 0.01 to 1 µM
--
Test Smiles: Cn1nc(-c2ccccn2)cc1Oc1cc(C#N)ccc1-c1ccc(CC(C)(C)N)cn1
Metric: IC50
Endpoint Value: < 0.01 µM

Kindly consider the entry below.
Query :: For the molecule "COCc1cn(Cc2cc(C#N)ccc2-c2ccc(CCN)cc2)cn1" , give its measured IC50 value.
Result :: > 1 µM

---

Target: Human TRPC6 (Homo sapiens, UniProt Q9Y210)
Construct: expressed in transfected cells
Sequence (Q9Y210 1-931): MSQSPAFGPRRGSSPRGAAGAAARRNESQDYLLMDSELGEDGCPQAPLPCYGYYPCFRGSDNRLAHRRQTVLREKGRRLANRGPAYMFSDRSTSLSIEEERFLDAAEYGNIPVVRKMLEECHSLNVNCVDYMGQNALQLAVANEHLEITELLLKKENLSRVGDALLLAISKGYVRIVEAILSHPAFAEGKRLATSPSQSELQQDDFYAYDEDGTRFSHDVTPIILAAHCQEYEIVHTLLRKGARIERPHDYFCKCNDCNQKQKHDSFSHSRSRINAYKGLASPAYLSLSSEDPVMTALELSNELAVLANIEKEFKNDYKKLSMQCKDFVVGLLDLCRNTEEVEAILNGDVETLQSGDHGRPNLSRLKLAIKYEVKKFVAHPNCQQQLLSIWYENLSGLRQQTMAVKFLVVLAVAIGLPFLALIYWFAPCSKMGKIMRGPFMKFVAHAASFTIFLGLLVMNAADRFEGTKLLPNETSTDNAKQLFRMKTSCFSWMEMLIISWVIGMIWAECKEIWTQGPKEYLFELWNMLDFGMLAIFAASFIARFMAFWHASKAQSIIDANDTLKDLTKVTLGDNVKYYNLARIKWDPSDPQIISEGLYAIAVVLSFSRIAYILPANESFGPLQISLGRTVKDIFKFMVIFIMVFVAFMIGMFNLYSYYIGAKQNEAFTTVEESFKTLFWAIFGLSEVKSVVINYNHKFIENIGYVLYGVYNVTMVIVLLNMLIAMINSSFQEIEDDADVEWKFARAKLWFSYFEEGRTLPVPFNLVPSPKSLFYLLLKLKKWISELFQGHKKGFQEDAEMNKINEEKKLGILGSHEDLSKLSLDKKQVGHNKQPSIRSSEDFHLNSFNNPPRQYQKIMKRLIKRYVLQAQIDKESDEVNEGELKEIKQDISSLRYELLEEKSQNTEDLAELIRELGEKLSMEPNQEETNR
Test: Evaluation of TRPC6 channel inhibitory activity (1), FLIPR Calcium 5 Assay Kit, OAG stimulation (Compound Nos. 1-1293)
Type: cell-based
Conditions: Human TRPC6 stably-expressing cells, OAG 30 μM, FLIPR Calcium 5 Assay Kit; read-out: Inhibitory activity (pIC50 class) (converted)
Metric: IC50

Worked cases, IC50 given:
Compound: Cc1nc(Oc2cc(C#N)ccc2-c2ncc(CN)cn2)cc(N2CCC[C@H]2C#N)n1
IC50: 10 to 1000 nM
--
Compound: Cn1nc(C2CC2)cc1Oc1cc(C#N)ccc1-n1ncc2c1CCNC2
IC50: > 1000 nM
--
Compound: CN(CC(F)F)c1cc(Oc2cc(F)ccc2-c2ccc(CCN)cn2)n(C)n1
IC50: < 10 nM
--
Compound: Cc1nc(OCC(C)C)cc(Oc2cc(C#N)ccc2-c2ncc(CN)cn2)n1
IC50: 10 to 1000 nM
--
Compound: Cc1cc(Oc2cc(C#N)ccc2-c2ccc(C[C@H](N)C(=O)O)cc2)cc(N2CCOCC2)n1
IC50: > 1000 nM
--
Compound: N#Cc1ccc(-c2ccc(CCN)nc2)c(Oc2cc(N3CCOCC3)nc(C(F)(F)F)n2)c1
IC50: 10 to 1000 nM
--
Compound: Cn1nc(N2CCCC2)cc1Oc1cc(F)ccc1-c1ncc(CN)cn1
IC50: 10 to 1000 nM
--
Compound: Cn1cc(-c2cc(Oc3cc(C#N)ccc3-c3ncc(CN)cn3)n(C)n2)cn1
IC50: > 1000 nM

Query :: Let me know recorded IC50 for "Cc1nc(C(=O)c2cc(F)ccc2-c2ncc(CN)cn2)cc(N2CCOCC2)n1" , thanks.
Result :: > 1000 nM

Query :: Specify reported IC50 for the compound shown: "Cc1cc(Oc2cc(C#N)ccc2-c2ccc([C@H](O)CN)cn2)cc(C)n1"
Result :: 10 to 1000 nM

---

Listed here are compounds together with their documented IC50.
molecular target: Human TRPC6 (Homo sapiens, UniProt Q9Y210); construct: expressed in transfected cells; experiment: Evaluation of TRPC6 channel inhibitory activity (1), FLIPR Calcium 5 Assay Kit, OAG stimulation (Compound Nos. 1-1293); format: cell-based; conditions: Human TRPC6 stably-expressing cells, OAG 30 μM, FLIPR Calcium 5 Assay Kit; read-out: Inhibitory activity (pIC50 class) (converted)

Take a look at these entries with their results.
Compound: Cc1cc(Oc2nc(C#N)ccc2-c2ccc(CCN)cn2)cc(N2CCCC2)n1 [compound 1282]
Tested On: Human TRPC6 (Homo sapiens, UniProt Q9Y210)
IC50: 10 to 1000 nM
//
Compound: Cn1nc(C2CC2)cc1Oc1cc(C#N)ccc1-c1cccc2nc(N)nn12 [compound 475]
Tested On: Human TRPC6 (Homo sapiens, UniProt Q9Y210)
IC50: > 1000 nM

# next compound below
Query :: Please report IC50 for the following compound: N#Cc1ccc(-c2ccc(CCN)cc2)c(Oc2cnnc(-c3ccccc3C#N)c2)c1 [Compound 93]
Result :: < 10 nM

---

Here the recorded IC50 is given for each entry.
Molecular target: Human TRPC6 (Homo sapiens, UniProt Q9Y210)
Construct: expressed in transfected cells
Sequence (Q9Y210 1-931): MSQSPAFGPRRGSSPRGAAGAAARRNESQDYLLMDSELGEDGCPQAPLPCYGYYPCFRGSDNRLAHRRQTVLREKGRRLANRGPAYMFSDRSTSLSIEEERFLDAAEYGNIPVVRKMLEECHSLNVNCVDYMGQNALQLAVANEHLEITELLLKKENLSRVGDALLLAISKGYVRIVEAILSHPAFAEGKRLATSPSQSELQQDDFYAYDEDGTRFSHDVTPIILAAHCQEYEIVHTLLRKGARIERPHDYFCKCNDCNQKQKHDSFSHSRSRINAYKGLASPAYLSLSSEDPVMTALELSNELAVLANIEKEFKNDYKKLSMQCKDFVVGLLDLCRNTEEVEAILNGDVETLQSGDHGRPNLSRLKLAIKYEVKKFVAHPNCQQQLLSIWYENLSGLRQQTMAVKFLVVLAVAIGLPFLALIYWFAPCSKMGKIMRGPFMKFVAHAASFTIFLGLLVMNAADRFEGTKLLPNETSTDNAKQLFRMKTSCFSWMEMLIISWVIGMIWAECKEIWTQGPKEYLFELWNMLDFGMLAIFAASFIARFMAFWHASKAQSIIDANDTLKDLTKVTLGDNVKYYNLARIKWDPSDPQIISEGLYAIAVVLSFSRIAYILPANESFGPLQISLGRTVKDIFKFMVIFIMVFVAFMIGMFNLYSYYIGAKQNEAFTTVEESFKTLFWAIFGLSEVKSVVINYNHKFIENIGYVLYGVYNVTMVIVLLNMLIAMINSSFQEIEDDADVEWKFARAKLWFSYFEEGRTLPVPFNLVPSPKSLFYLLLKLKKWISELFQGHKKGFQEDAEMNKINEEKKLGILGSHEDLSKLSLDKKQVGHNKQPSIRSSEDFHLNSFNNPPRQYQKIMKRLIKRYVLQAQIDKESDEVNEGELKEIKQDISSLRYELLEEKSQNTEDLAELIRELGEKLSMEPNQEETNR
Test: Evaluation of TRPC6 channel inhibitory activity (2), HEK293 cells with stably introduced human TRPC6, OAG stimulation, FLIPR tetra (Compound Nos. 1293 to 1405)
Assay type: cell-based
Conditions: HEK293 cells with stably introduced human TRPC6, OAG 50 μM/0.5% DMSO, read-out: Inhibitory activity (pIC50 class) (converted)

Compound: Cc1cc(Oc2cc(Cl)ccc2-c2ncc(CN)cn2)cc(N2CCOCC2)n1 [compound 1315]
IC50: 10 to 1000 nM
//
Compound: COc1nc(-c2ccc(C#N)cc2Oc2cc(-c3ccccn3)nn2C)ccc1CN [compound 1310]
IC50: 10 to 1000 nM

Next up:
Query :: Read the entry Cn1nc(C2CCOCC2)cc1Oc1cc(Cl)ccc1-c1ccc(CN)cn1 [compound 1361] and write its reported IC50.
Result :: < 10 nM
